molecular target: Kv1.5 potassium channel (Homo sapiens, UniProt P22460); test: Electrophysiological studies: whole-cell patch clamp of Kv1.5 currents in CHO cells; format: cell-based; conditions: Chinese hamster ovary cells stably expressing Kv1.5, whole-cell voltage clamp, read-out: Peak current inhibition at 0.1 μM (%)
Sequence (P22460 whole entry): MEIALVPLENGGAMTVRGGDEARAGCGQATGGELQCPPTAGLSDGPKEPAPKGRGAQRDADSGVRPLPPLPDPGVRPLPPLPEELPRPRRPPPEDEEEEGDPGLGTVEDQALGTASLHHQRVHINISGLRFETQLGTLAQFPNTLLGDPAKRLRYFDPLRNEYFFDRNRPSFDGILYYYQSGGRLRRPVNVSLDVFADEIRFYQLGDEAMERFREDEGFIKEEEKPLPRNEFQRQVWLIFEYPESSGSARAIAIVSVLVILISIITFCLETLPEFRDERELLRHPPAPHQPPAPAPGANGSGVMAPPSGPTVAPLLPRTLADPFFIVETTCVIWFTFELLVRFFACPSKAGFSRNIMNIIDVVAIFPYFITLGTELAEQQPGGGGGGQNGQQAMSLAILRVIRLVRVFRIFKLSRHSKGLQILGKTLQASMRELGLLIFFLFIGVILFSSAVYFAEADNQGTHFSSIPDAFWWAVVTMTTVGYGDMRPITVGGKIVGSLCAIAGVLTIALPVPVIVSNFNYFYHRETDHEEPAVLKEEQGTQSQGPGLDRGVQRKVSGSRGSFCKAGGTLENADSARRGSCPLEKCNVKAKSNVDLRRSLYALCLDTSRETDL
observation-type: inhibition at 0.1 µM (%)

Solved entries:
# structure-notation, target, uom, inhibition at 0.1 µM
measured = [
    ("Cc1ncc(CN(C(=O)C[C@@H](C)c2ccccc2)c2ccc3c(c2)[C@@H](NS(=O)(=O)c2cccc(F)c2)CCC3)n1C(C)C", "Kv1.5 potassium channel (Homo sapiens, UniProt P22460)", "%", 52),
    ("C[C@H](CC(=O)N(Cc1nccn1C)c1ccc2c(c1)[C@@H](NS(=O)(=O)c1cccc(Cl)c1)CCC2)c1ccccc1", "Kv1.5 potassium channel (Homo sapiens, UniProt P22460)", "%", 86),
    ("Cc1cccc(CN(C(=O)C[C@H](C)c2ccccc2)c2ccc3c(c2)[C@H](NS(=O)(=O)c2ccccc2)CCC3)n1", "Kv1.5 potassium channel (Homo sapiens, UniProt P22460)", "%", 26),
]

[1] C[C@@H](CC(=O)N(Cc1nccn1C)c1ccc2c(c1)[C@@H](NS(=O)(=O)c1cccc(Cl)c1)CCC2)c1ccccc1
[2] Cc1cccc(CN(C(=O)C[C@@H](C)c2ccccc2)c2ccc3c(c2)[C@@H](NS(=O)(=O)c2ccc(F)c(Cl)c2)CCC3)n1
[3] C[C@@H](CC(=O)N(Cc1nccn1C)c1ccc2c(c1)[C@H](NS(=O)(=O)c1cccc(Cl)c1)CCC2)c1ccccc1
Exam item: Arrange the 3 compounds by rising inhibition at 0.1 µM, starting with the smallest. # output: labels, in the requested order
Marked response: 1, 2, 3
(1: 30%, 2: 48%, 3: 84%)

====

target: Kv1.5 potassium channel (Homo sapiens); experiment: Electrophysiological studies: whole-cell patch clamp of Kv1.5 currents in CHO cells; assay type: cell-based; conditions: Chinese hamster ovary cells stably expressing Kv1.5, whole-cell voltage clamp, read-out: Steady-state Current Inhibition at 0.1 μM (%)
observation-type: inhibition at 0.1 µM (%)

Examples with their reported inhibition at 0.1 µM follow.
# compound, inhibition at 0.1 µM, %
records = [
    ("Cc1cccc(CN(C(=O)C[C@H](C)c2ccccc2)c2ccc3c(c2)[C@H](NS(=O)(=O)c2ccccc2)CCC3)n1 [Example 25]", 50),
    ("C[C@@H](CC(=O)N(Cc1nccn1C)c1ccc2c(c1)[C@@H](NS(=O)(=O)c1ccccc1)CCC2)c1ccccc1 [Example 5]", 78),
    ("Cc1ncc(CN(C(=O)C[C@@H](C)c2ccccc2)c2ccc3c(c2)[C@@H](NS(=O)(=O)c2ccccc2)CCC3)n1C(C)C [Example 21]", 67),
    ("C[C@H](CC(=O)N(Cc1nccn1C)c1ccc2c(c1)[C@@H](NS(=O)(=O)c1ccccc1)CCC2)c1ccccc1 [Example 4]", 89),
    ("C[C@@H](CC(=O)N(Cc1nccn1C)c1ccc2c(c1)[C@H](NS(=O)(=O)c1cccc(F)c1)CCC2)c1ccc(F)cc1 [Example 26]", 76),
]

[A] C[C@@H](CC(=O)N(Cc1nccn1C)c1ccc2c(c1)[C@@H](NS(=O)(=O)c1ccc(F)cc1)CCC2)c1ccccc1 [Example 9]
[B] C[C@@H](CC(=O)N(Cc1nccn1C)c1ccc2c(c1)[C@H](NS(=O)(=O)c1ccccc1)CCC2)c1ccccc1 [Example 11]
Exam item: Which gives the smaller inhibition at 0.1 µM number: A or B ? In your reply, give the label of the chosen option.
Marked response: A
(A: 61%, B: 91%)

====

target: Kv1.5 potassium channel (Homo sapiens, UniProt P22460); experiment: Electrophysiological studies: whole-cell patch clamp of Kv1.5 currents in CHO cells; format: cell-based; settings: Chinese hamster ovary cells stably expressing Kv1.5, whole-cell voltage clamp, read-out: Peak current inhibition at 0.1 μM (%)
observation-type: inhibition at 0.1 µM (%)

// worked examples, inhibition at 0.1 µM included
# molecule, uom, inhibition at 0.1 µM
data = [
    ("Cc1cccc(CN(C(=O)C[C@@H](C)c2ccccc2)c2ccc3c(c2)[C@@H](NS(=O)(=O)c2ccccc2)CCC3)n1 [Example 23]", "%", 75),
    ("C[C@@H](CC(=O)N(Cc1nccn1C)c1ccc2c(c1)[C@@H](NS(=O)(=O)c1ccc(F)cc1)CCC2)c1ccccc1 [Example 9]", "%", 53),
    ("Cc1ncc(CN(C(=O)C[C@@H](C)c2ccccc2)c2ccc3c(c2)[C@@H](NS(=O)(=O)c2ccccc2)CCC3)n1C(C)C [Example 21]", "%", 58),
    ("COc1ccc(S(=O)(=O)N[C@H]2CCCc3ccc(N(Cc4nccn4C)C(=O)C[C@@H](C)c4ccccc4)cc32)cc1 [Example 18]", "%", 72),
]

[I] C[C@H](CC(=O)N(Cc1nccn1C)c1ccc2c(c1)[C@@H](NS(=O)(=O)c1cccc(F)c1)CCC2)c1ccccc1 [Example 12]
[II] C[C@@H](CC(=O)N(Cc1nccn1C)c1ccc2c(c1)[C@@H](NS(=O)(=O)c1ccccc1)CCC2)c1ccccc1 [Example 5]
Exam item: Higher inhibition at 0.1 µM: I or II ? Pick one; state its label.
Marked response: I
(I: 68%, II: 45%)

====

target: Kv1.5 potassium channel (Homo sapiens, UniProt P22460); test: Electrophysiological studies: whole-cell patch clamp of Kv1.5 currents in CHO cells; type: cell-based; conditions: Chinese hamster ovary cells stably expressing Kv1.5, whole-cell voltage clamp, read-out: Steady-state Current Inhibition at 0.1 μM (%)
observation-type: inhibition at 0.1 µM (%)

# structure-notation, target, quantitative-readout
records = [
    ("C[C@H](CC(=O)N(Cc1nccn1C)c1ccc2c(c1)[C@@H](NS(=O)(=O)c1ccc(F)c(Cl)c1)CCC2)c1ccccc1", "Kv1.5 potassium channel (Homo sapiens, UniProt P22460)", 93),
    ("COc1ccc(S(=O)(=O)N[C@H]2CCCc3ccc(N(Cc4nccn4C)C(=O)C[C@@H](C)c4ccccc4)cc32)cc1", "Kv1.5 potassium channel (Homo sapiens, UniProt P22460)", 84),
    ("C[C@H](CC(=O)N(Cc1nccn1C)c1ccc2c(c1)[C@@H](NS(=O)(=O)c1cccc(F)c1)CCC2)c1ccccc1", "Kv1.5 potassium channel (Homo sapiens, UniProt P22460)", 85),
    ("C[C@@H](CC(=O)N(Cc1nccn1C)c1ccc2c(c1)[C@H](NS(=O)(=O)c1cccs1)CCC2)c1ccccc1", "Kv1.5 potassium channel (Homo sapiens, UniProt P22460)", 79),
    ("C[C@@H](CC(=O)N(Cc1nccn1C)c1ccc2c(c1)[C@H](NS(=O)(=O)c1cccc(Cl)c1)CCC2)c1ccccc1", "Kv1.5 potassium channel (Homo sapiens, UniProt P22460)", 97),
    ("C[C@H](CC(=O)N(Cc1nccn1C)c1ccc2c(c1)[C@@H](NS(=O)(=O)c1cccc(Cl)c1)CCC2)c1ccccc1", "Kv1.5 potassium channel (Homo sapiens, UniProt P22460)", 96),
    ("C[C@@H](CC(=O)N(Cc1nccn1C)c1ccc2c(c1)[C@H](NS(=O)(=O)c1cccc(F)c1)CCC2)c1ccccc1", "Kv1.5 potassium channel (Homo sapiens, UniProt P22460)", 100),
]

====

target: UniProtKB P22460; experiment: Electrophysiological studies: whole-cell patch clamp of Kv1.5 currents in CHO cells; type: cell-based; details: Chinese hamster ovary cells stably expressing Kv1.5, whole-cell voltage clamp, read-out: Steady-state Current Inhibition at 0.1 μM (%)
observation-type: inhibition at 0.1 µM (%)

# molecule, uom, quantitative-readout
measured = [
    ("CC(CC(=O)N(Cc1nccn1C)c1ccc2c(c1)C(NS(=O)(=O)c1ccc(F)cc1)CCC2)c1ccccc1 (centres unmarked)", "%", 67),
    ("Cc1ncc(CN(C(=O)C[C@@H](C)c2ccccc2)c2ccc3c(c2)[C@@H](NS(=O)(=O)c2cccc(F)c2)CCC3)n1C(C)C", "%", 64),
    ("Cc1cccc(CN(C(=O)C[C@@H](C)c2ccccc2)c2ccc3c(c2)[C@@H](NS(=O)(=O)c2ccccc2)CCC3)n1", "%", 90),
    ("Cc1cccc(CN(C(=O)C[C@@H](C)c2ccccc2)c2ccc3c(c2)[C@@H](NS(=O)(=O)c2ccc(F)c(Cl)c2)CCC3)n1", "%", 65),
    ("C[C@@H](CC(=O)N(Cc1nccn1C)c1ccc2c(c1)[C@@H](NS(=O)(=O)c1cccc(Cl)c1)CCC2)c1ccccc1", "%", 81),
]
